# test target: T1, human PD-L1 (human, UniProt Q9NZQ7 19-239, limits assumed)
# T1 construct: also called Hu PD-L1; hPD-L1
# T1 sequence (Q9NZQ7 19-239 limits assumed): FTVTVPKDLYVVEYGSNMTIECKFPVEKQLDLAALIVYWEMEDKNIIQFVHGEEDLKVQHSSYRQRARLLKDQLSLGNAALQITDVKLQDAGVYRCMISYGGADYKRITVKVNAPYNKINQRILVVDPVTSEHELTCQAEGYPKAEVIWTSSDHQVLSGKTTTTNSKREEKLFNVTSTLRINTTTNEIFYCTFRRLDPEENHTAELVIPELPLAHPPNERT
# protocol notes: cell binding assay, inhibition of Hu PD-L1/PD-1 binding
Positions of bridges follow the written chain, without caps; N, C: chain ends. Non-standard residues stand in square brackets, D forms with d. 4Pal = N[C@@H](Cc1ccncc1)C(=O)O; NMeNle = CCCC[C@H](NC)C(=O)O; NMeA = CN[C@@H](C)C(=O)O; Sar = CNCC(=O)O
attribute measured: IC50 (nM)
// note: answer is a bare numeric in nM

# return recorded IC50 for input {CH2CO}-[4Pal][NMeA]NPHL[Sar]WSW[NMeNle][NMeNle]RCG-NH2 (thioether N-14; SMILES CCCC[C@H]1C(=O)N(C)[C@@H](CCCC)C(=O)N[C@@H](CCCNC(=N)N)C(=O)N[C@H](C(=O)NCC(N)=O)CSCC(=O)N[C@@H](Cc2ccncc2)C(=O)N(C)[C@@H](C)C(=O)N[C@@H](CC(N)=O)C(=O)N2CCC[C@H]2C(=O)N[C@@H](Cc2c[nH]cn2)C(=O)N[C@@H](CC(C)C)C(=O)N(C)CC(=O)N[C@@H](Cc2c[nH]c3ccccc23)C(=O)N[C@@H](CO)C(=O)N[C@@H](Cc2c[nH]c3ccccc23)C(=O)N1C, macrocyclic peptide, Formula I series; also called Compound 39) [Compound No. 39]
283

Sourced from patent US20140294898A1
